# measured-target: HIV-1 Env of isolate 6535.3 (subtype B) (HIV-1)
# assay-comment: cell-based or functional assay
observable: IC50 (µg/mL), pseudovirus neutralization

Record excerpt, results attached:
binder	result
PGT-135 (antibody, V domains shown) VH: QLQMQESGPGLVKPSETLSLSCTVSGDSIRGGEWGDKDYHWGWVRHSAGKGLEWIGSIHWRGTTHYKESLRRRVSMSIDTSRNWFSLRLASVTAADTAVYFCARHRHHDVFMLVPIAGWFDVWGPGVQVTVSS VL: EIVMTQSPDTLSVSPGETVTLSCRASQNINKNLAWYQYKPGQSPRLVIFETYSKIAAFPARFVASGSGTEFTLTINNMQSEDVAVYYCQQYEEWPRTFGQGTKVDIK	> 50 µg/mL
PGT-128 (antibody, V domains shown) VH: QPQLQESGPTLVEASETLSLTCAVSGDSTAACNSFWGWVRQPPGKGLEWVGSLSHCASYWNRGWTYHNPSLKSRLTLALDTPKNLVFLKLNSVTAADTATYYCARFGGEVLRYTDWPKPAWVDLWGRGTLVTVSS VL: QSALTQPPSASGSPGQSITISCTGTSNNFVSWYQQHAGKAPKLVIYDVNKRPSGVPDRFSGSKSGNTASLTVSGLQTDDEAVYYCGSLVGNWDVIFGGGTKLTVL	0.011 µg/mL

response.value for PGT-137 (antibody, V domains shown) VH: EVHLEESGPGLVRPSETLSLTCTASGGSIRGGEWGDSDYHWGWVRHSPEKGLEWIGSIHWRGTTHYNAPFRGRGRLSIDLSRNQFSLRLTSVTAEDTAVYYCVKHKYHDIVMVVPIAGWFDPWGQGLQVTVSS VL: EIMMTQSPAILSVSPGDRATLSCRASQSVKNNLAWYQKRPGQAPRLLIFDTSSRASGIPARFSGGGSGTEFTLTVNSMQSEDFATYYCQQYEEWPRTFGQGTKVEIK (field: IC50 (µg/mL), pseudovirus neutralization) = > 50 µg/mL
